# Test system: HeLa
# ASSAY_EXPLANATION: Proliferation assay (crystal violet), HeLa
# Assay type: cell-based
# CONDITIONS_USED: Homo sapiens, HeLa, 96 h, HeLa cells; 4 days incubation; crystal violet staining; read-out: IC50 inhibition of proliferation, HeLa
# reported pIC50; entries follow
Field pIC50 (float): negative decimal logarithm of the concentration in molar.

According to the records, this molecule Cc1nsc(Nc2cnc3ccccc3n2)c1C(=O)Nc1ccc(OC2CCN(CC(F)(F)F)CC2)nc1 [Example 21] displays pIC50 of 6.06

According to the records, this molecule Cc1nsc(Nc2cnc3ccccc3n2)c1C(=O)Nc1ccc(OC2CCCN(C(=O)OC(C)(C)C)C2)nc1 (stereo not shown) [Example 31] displays pIC50 of 5.92
